# tested-target: Dickkopf-related protein 1 (Homo sapiens) (UniProt O94907)
# Sequence (O94907 whole entry, looked up): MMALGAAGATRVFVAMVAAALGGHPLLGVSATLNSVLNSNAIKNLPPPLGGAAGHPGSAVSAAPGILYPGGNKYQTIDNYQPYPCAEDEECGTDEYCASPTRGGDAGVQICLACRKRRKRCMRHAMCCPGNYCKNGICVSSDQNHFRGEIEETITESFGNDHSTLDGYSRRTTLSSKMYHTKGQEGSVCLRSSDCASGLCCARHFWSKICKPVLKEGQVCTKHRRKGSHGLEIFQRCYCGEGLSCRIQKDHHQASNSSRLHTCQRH
# method-description: small molecules binding DKK1 protein – biochemical, small-molecule microarray, 635 nm fluorescence scan, primary screen (AID 1106);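 note: score merges emission near 667 nm with signal to noise over three replicate slides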
# measurement-setup: higher = more signal
Entries and their measured composite z-score follow.
Answer with a bare number; do not write a unit.

Prompt: Indicate the recorded composite z-score value for this compound: CC1CC/C=C\[C@H]2OC34C=CCN(Cn5nnc6ccccc65)C(=O)[C@H]3N(CCCCCO)C(=O)[C@@H]4C2C(=O)O1 (stereo not given in full)
Response: -1.27

Prompt: Given "O=C1O[C@@H](c2ccccc2)[C@@H](c2ccccc2)N2[C@@H](c3ccc(OCCO)cc3)[C@]3(C(=O)Nc4ccc(C#CCCO)cc43)[C@@H](C(=O)NC[C@H](O)c3ccccc3)[C@H]12" , respond with its composite z-score.
Response: 0.687

Prompt: Identify the reported composite z-score for the following entry. "C#CCN1[C@@H](Cc2ccc(O)cc2)C(=O)O[C@H](Cc2ccccc2)[C@@H]1/C=C/C1CC1"
Response: 0.0874

----------
Quick reference for composite z-score among some compounds
# tested-target: Neurogenic locus notch homolog protein 3 (Homo sapiens)
# method-description: small molecules binding NOTCH3 protein – biochemical, 635/667 nm fluorescence, primary screen (AID 1096)
# measurement-setup: small-molecule microarray, 635 nm fluorescence, higher = more signal
# print the numeric value only

Prompt: Give the measured composite z-score for CCN(CC)c1ccc(N2CC=CC34O[C@@H]5C=CCOC(=O)[C@@H]5[C@H]3C(=O)N(CCCCCCO)[C@@H]4C2=O)cc1 (some centres undefined)
Response: -0.136

Prompt: For the compound "NCCCCCNC(=O)[C@H]1C[C@H]2C(=O)N[C@@H](Cc3ccccc3)C(=O)N2[C@H]1c1cccc(OCCO)c1" , report composite z-score.
Response: 0.478

Prompt: Hello, please tell me recorded composite z-score for this one: O=C1OCCC=C[C@H]2OC34C=CCN(CCN5CCOCC5)C(=O)[C@H]3N(CCCCCO)C(=O)[C@@H]4C12 (some centres undefined)
Response: 0.193

Read the next record carefully.
Prompt: Given "O=C(CS)NCCCCCNC(=O)[C@H]1C[C@H]2C(=O)NCC(=O)N2[C@H]1c1cccc(OCCO)c1" , respond with its composite z-score.
Response: -0.154

----------
Listing of recorded composite z-score by entry.
# Tested on: Sonic hedgehog protein (Shh)
# method-description: Sonic hedgehog microarray binding compounds – biochemical, small-molecule microarray, 635/667 nm fluorescence, primary screen (AID 1151);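 note: Shh protein binding to compounds spotted on small-molecule microarray slides; score combines spot fluorescence intensity with signal-to-noise across triplicate slides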
# measurement-setup: 635 nm fluorescence, higher = more signal
In your answer, state the number alone without any accompanying words.

Prompt: Find the measured composite z-score of "C=CCNC(=O)[C@H]1[C@@H]2C(=O)O[C@@H](c3ccccc3)[C@@H](c3ccccc3)N2[C@@H](c2ccc(O)cc2)[C@]12C(=O)Nc1ccc(C#CCCO)cc12" and report it.
Response: 0.717

Prompt: Please report composite z-score for the following molecule: "COc1ccc(C(=O)Nc2ccc(CN3C(=O)[C@]4(O[C@H](CC(=O)N5CCC[C@H]5CO)[C@@H]([Si](C)(C)c5ccc(OC)cc5)[C@@H]4C)c4ccccc43)cc2)cc1"
Response: 2.05

Prompt: Specify reported composite z-score for the molecule shown: O=C(O)C1N=C(c2ccc(OCCCO)cc2)N(c2ccccc2)O1 (centres undefined)
Response: 0.287

Continuing:
Prompt: Dear colleague, please send me the reported composite z-score for "COCCOC(=O)N1C(=O)[C@@]2(c3cc(C#CC4=CCCCC4)ccc31)[C@H](c1ccc(OCCO)cc1)N1[C@H](c3ccccc3)[C@H](c3ccccc3)OC(=O)[C@H]1[C@@H]2C(=O)N1CCc2cc(OC)c(OC)cc2C1" when you can.
Response: 1.32
